Biological target: ESO157 A1 peptide (…)/HLA-A*02:01 complex on T2 cells (human)
Assay: FACS, peptide-pulsed T2 cells
quantity_measured: MFI
Please give only the number in your answer, with no unit.

For orientation, consider the following solved cases.
# binder, MFI
rows = [
    ("phage clone #35, anti-ESO157/HLA-A*02:01 scFv displayed on phage (scFv, V domains shown, also called parental phage clone #35) VH: QVQLVQSGAEVKKPGSSVKVSCKASGDTFSSYSISWVRQAPGQGLEWMGRIIPILGIANYAQKYQGRVTLSADKSTSTSYMELNSLRSEDTAVYYCARDWSYSIDYWGQGTLVTVSS VL: QSVVTQPPSVSAAPGQKVTISCSGSSSNIGNNYVSWYQQLPGTAPKLLIYDNNKRPSGIPDRFSGSKSGTSATLGITGLQTGDEADYYCGTWDSSLSAWVFGGGTKLTVLG", 42400),
    ("phage clone #116, anti-ESO157/HLA-A*02:01 scFv displayed on phage (scFv, V domains shown) VH: QVQLVQSGPEVKKPGASMKVSCKASGYTFTKYGISWVRQAPGQGLEWMGWISADSGKTSYAQNLQGRVSLTIDTSTATAYMELRSLRSDDTAVYYCARDDDSWGQGTLVTVSS VL: QSVLTQPPSVSAAPGQKVTISCSGSSSNIGNNYVSWYQQLPGTAPKLLIYDNNKRPSGIPDRFSGSKSGTSATLGITGLQTGDEADYYCGTWDSSLSAEVFGTGTKVTVLG", 19600),
]

Q: Dear colleague, I am looking for the recorded MFI of the following binder: phage clone #76, anti-ESO157/HLA-A*02:01 scFv displayed on phage (scFv, V domains shown) VH: EVQLVQSGAEVKKPGSSVKVSCKASGGTFSSYAISWVRQAPGQGLEWMGGIIPIFGTANYAQKFQGRVTITADESTSTAYMELSSLRSEDTAVYYCARYDSYVYDEWGQGTLVTVSS VL: QSVVTQPPSLSGAPGQRVTISCNGSGSNIGAGYDVHWYQQLPGTAPKLLIYGNSNRPSGVPDRFSGSKSGTSASLAITGLQAEDEADYYCQSYDSSLSGWGIFGGGTKLTVLG
A: 14600
